Reference source: PubChem BioAssay AID743093

test: late stage P. falciparum gametocyte viability inhibitors, primary screen, ATP luminescence, HTS (AID 743093);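 note: 0% = DMSO wells and 100% = medium only without gametocytes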; details: P. falciparum stage V gametocytes, 24 h, at 10.9 µM, hits give high values
Out of some 150,000 compounds screened, about 100 (0.067%) were called active. What follows is part of a selection rich in actives, with near analogues and random picks from the rest.
Endpoint name: inhibition (%)
Answers are plain numbers, in %.

Hey, quick one: what's inhibition for each of these?
1. O=C(c1ccc(F)cc1)n1cc(C(=S)N2CCOCC2)c2ccccc21
2. CCCc1nc2oc3c(=O)[nH]cnc3c2c2c1COC(C)(C)C2

Return:
[0.53, 8.46]

Look up inhibition for the entries below, preserving their order.
1. CC(C)=CCN1CCN(CCCc2ccccc2)CC1CCO (centres undefined)
2. COc1ccc(NC(=O)C2=NNC(=O)CC2)cc1S(=O)(=O)N1CCCCC1
3. O=[N+]([O-])c1ccccc1/C=C/CN1CCCC(CO)C1 (centres undefined)
4. CCOc1cc(/C=N/Nc2cc(C)nc3ccc(C)cc23)ccc1O

Return:
1: 26.8; 2: 3.13; 3: -16.5; 4: 10.4

Please give inhibition for each item listed below.
1. COc1cc(NC(=O)c2ccc(CNc3c(N4CCCC4)c(=O)c3=O)cc2)cc(OC)c1OC
2. COc1ccc(-c2cc3ncccc3cn2)cc1
3. COc1ccc(C(C#N)(CC(=O)O)c2cnccn2)cc1OC (centres undefined)

Return:
1: -11.3; 2: -25; 3: -25

Look at each compound and report its inhibition.
1. Cc1nc([N+](=O)[O-])cn1CC(=O)Nc1ccc(Cl)cc1
2. Cc1noc(C)c1NC(=O)Nc1cccc2c1O[C@H](CN(C)S(=O)(=O)c1c(C)noc1C)[C@@H](C)CN([C@H](C)CO)C2=O

Return:
1. 2.38
2. -15.7

Batch request: inhibition for each of the following compounds.
1. CSc1ccc(S(=O)(=O)N2CCC(C(=O)NCCc3ccccc3)CC2)cc1
2. COc1ccc(N(CC(=O)Nc2cccc3ccccc23)S(C)(=O)=O)c(OC)c1
3. CC(C)NC(=O)/C(C#N)=C\c1ccc(N(C)C)c(Br)c1
4. CCOC(=O)c1c(N)sc2c1CCCC2=O
5. O=C(CNc1ccc(F)cc1F)NC(=O)NCc1ccco1
6. CCc1ccc(NC(=O)N[C@H](C(=O)O)C(C)CC)cc1 (some centres undefined)
7. COc1ccc(C(C)NC(=O)C2CCCC2)cc1 (centres undefined)

Return:
1: -3.09; 2: 7.84; 3: 7.74; 4: -6.75; 5: -14.3; 6: -3.41; 7: 7.38

Record inhibition for all entries; do not skip any.
1. CC(=O)C(C)n1cnc2scc(-c3ccc(C)cc3)c2c1=O (centres undefined)
2. CCc1nnc(NS(=O)(=O)c2ccc(NC(=O)c3cccc(OC(F)(F)C(F)F)c3)cc2)s1
3. Nc1cc(N)nc(SCc2cccc(F)c2)n1

Return:
[13.9, -3.99, -27.3]

Go through the items and report each one's inhibition.
1. CN1CCN(c2ccc(S(=O)(=O)N3CCOCC3)cc2NC(=O)CCc2ccccc2)CC1
2. Cc1ccc(S(=O)(=O)N2CCN(C)CC2)cc1
3. O=C(COc1ccccc1)N1CCN=C1SCc1cccc(F)c1
4. COC(=O)c1ccc(COc2cc([N+](=O)[O-])cc3cccnc23)cc1
5. CCC(C)CCN1CCN=C1N(C)C (centres undefined)
6. COc1ccc2ccn(C)c2c1
7. CCCn1c(C2CCCN2c2nc(-c3ccc(C)cc3)cs2)nc2cc(Cl)c(N3CCCCC3)cc21 (centres undefined)

Return:
1. -2.86
2. -1.33
3. 8.04
4. 2.3
5. 4.3
6. 3.29
7. 10.4

Please supply inhibition for each of the following items, keeping them in order.
1. Cc1ccc2c(O)c(Cc3ccccc3)c(=O)[nH]c2n1
2. CC(C)(C)NC(=O)/C(=C/c1cccnc1)NC(=O)c1ccco1
3. CCC(=O)Nc1ccc(C(=O)NNC(=O)c2ccc(Cl)cc2)cc1
4. COC(=O)CN1C(=O)[C@H]2[C@@H](C3CC3)N3C(=O)CN(Cc4ccc(-c5ccccc5)cc4)C(=O)[C@@]3(Cc3ccccc3)[C@H]2C1=O
5. COc1ccccc1-c1oc2ccccc2c1C#CCCCCO
6. COc1cccc(CNc2ncc(-c3ccccc3)n2C)c1

Return:
-11.8
-3.01
1.21
-19.5
7.1
-4.96
